Biological target: human integrin αvβ3 (human, UniProt P06756 31-992; P05106 27-718, limits assumed)
Sequence (P06756 31-992 limits assumed, chain 1 of 2): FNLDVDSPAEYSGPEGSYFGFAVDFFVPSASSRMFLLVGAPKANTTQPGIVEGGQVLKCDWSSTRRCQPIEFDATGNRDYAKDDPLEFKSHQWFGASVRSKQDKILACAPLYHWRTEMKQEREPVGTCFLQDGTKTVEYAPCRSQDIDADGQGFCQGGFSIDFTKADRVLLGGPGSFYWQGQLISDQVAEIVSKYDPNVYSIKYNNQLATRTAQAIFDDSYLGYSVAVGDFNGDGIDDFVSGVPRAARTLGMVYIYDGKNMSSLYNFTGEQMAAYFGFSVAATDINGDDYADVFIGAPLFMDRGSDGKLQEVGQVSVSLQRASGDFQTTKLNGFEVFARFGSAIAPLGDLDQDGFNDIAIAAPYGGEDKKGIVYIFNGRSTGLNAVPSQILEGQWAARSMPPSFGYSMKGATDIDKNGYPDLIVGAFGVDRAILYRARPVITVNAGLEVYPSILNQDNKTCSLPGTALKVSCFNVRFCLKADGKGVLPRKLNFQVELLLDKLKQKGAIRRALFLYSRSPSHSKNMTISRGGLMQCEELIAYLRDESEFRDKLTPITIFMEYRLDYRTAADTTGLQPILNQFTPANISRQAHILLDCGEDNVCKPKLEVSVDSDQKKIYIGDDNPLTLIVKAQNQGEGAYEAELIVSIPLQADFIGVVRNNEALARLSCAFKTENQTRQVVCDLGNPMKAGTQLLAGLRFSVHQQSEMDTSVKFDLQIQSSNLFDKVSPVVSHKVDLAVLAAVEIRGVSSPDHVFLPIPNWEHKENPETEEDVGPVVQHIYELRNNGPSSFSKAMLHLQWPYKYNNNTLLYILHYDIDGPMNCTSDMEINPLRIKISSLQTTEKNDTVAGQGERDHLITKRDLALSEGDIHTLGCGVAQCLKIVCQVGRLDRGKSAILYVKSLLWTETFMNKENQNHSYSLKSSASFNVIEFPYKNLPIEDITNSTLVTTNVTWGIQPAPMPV
Sequence (P05106 27-718 limits assumed, chain 2 of 2): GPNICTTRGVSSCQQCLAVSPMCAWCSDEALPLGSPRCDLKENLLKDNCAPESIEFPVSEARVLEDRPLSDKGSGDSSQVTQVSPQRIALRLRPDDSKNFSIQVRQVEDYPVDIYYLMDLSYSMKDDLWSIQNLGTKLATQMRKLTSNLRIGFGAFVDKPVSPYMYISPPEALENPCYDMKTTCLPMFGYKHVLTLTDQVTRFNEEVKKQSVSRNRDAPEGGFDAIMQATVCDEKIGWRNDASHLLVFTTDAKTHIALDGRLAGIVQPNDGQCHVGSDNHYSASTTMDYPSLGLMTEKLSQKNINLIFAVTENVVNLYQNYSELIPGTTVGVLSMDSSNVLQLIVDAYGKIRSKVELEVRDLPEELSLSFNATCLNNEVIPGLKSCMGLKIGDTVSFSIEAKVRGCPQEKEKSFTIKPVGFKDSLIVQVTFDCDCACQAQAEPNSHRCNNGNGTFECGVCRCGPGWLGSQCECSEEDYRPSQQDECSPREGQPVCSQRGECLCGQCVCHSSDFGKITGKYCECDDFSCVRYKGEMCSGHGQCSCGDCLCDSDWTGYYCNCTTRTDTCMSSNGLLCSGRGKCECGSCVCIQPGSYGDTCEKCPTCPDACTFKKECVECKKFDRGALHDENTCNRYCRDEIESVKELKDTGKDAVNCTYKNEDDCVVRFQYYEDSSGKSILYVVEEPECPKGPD
Test: human FP direct binding; column 'Mean', n=9
reported_property: Kd (nM)
Give bare numbers, in nM.

## Input Look at this binder and give its reported Kd. ACLDHMECRGDMDCAXXXXXXK (Sar6 (six sarcosines); fluorescein (Fl) on the C-terminal K; Ci, Cii and Ciii bound to the TBMB scaffold, Fluorescent bicyclic peptide) [BCY2572]
## Output 9
